- System: HCT-116 colon
- assay-notes: NCI-60 one-dose screen, 48 h
- condition-description: 10 µM unless noted
This is part of a sample that, as a whole, favours compounds with a hit. Of some 83,000 tested, about 20% had one in any assay. Active and inactive are the calls of the source. The calls were made as follows: active = growth percent below 10; inactive = the rest.
API: response.call in Yes = active, No = inactive

Examples from the recorded data:
// query What was the test verdict on O=C1c2ccc3c4c(ccc(c24)C(=O)N1CCCNCc1ccccc1Cl)C(=O)N(CCCNCc1ccccc1Cl)C3=O ?
// result Yes

// query What was the test verdict on O=C1Nc2cc(Cl)ccc2/C1=C\c1c(-c2ccc(F)cc2)nc2ccccn12 ?
// result Yes

// query What was the test verdict on CCC(=O)Oc1ccc(/C(=C(\C)c2ccccc2)c2ccc(OCCN3CCCCC3)cc2)cc1 ?
// result No

New cases:
// query What was the test verdict on NS(=O)(=O)c1ccc(CCN2C(=O)C3C(C2=O)C2(Cl)C(Cl)=C(Cl)C3(Cl)C2(Cl)Cl)cc1 (centres undefined) ?
// result No
